experiment: Biodistribution at 24 h p.i. in AR42J tumor-bearing CB17-SCID mice; assay type: in vivo; details: mouse, blood, 100 pmol, n=4, mean ± SD, read-out: Biodistribution, Blood
Assignment: determine reported tissue uptake at 24 h for the given compounds.
Give bare numbers, in %ID/g.

{"compound": "CCCC[C@@H](C(=O)N[C@@H](CC(=O)O)C(=O)N[C@@H](Cc1cccc2ccccc12)C(N)=O)N(C)C(=O)[C@H](Cc1c[nH]c2ccccc12)NC(=O)CCOCCOCCOCCOCCNC(=O)CC[C@@H](NC(=O)CCOCCOCCOCCOCCOCCNC(=O)CC[C@@H](NC(=O)[C@@H](CNC(=O)C[N+](C)(C)Cc1ccc([Si](F)(C(C)(C)C)C(C)(C)C)cc1)NC(=O)CN1CCN(CC(=O)O)CCN(CC(=O)O)CCN(CC(=O)O)CC1)C(=O)O)C(=O)O [[^nat/177Lu]Lu-DOTA-rhCCK-91, metal not drawn]", "unit of measure": "%ID/g", "tissue uptake at 24 h": 0.04}

# evaluate next
Lab note: measured tissue uptake at 24 h of CCCC[C@@H](C(=O)N[C@@H](CC(=O)O)C(=O)N[C@@H](Cc1cccc2ccccc12)C(N)=O)N(C)C(=O)[C@H](Cc1c[nH]c2ccccc12)NC(=O)CCOCCOCCOCCOCCNC(=O)CC[C@@H](NC(=O)CCOCCOCCOCCOCCOCCOCCOCCOCCNC(=O)CC[C@@H](NC(=O)[C@@H](CNC(=O)c1ccc([Si](F)(C(C)(C)C)C(C)(C)C)cc1)NC(=O)CN1CCN(CC(=O)O)CCN(CC(=O)O)CCN(CC(=O)O)CC1)C(=O)O)C(=O)O [[^nat/177Lu]Lu-DOTA-rhCCK-70, metal not drawn] was 0.1

* * *

Assignment: determine reported tissue uptake at 24 h for the given compounds.
experiment: Biodistribution at 24 h p.i. in AR42J tumor-bearing CB17-SCID mice; type: in vivo; conditions: mouse, muscle, 100 pmol, n=4, mean ± SD, read-out: Biodistribution, Muscle

{"compound": "CCCC[C@@H](C(=O)N[C@@H](CC(=O)O)C(=O)N[C@@H](Cc1cccc2ccccc12)C(N)=O)N(C)C(=O)[C@H](Cc1c[nH]c2ccccc12)NC(=O)CCOCCOCCOCCOCCNC(=O)CC[C@@H](NC(=O)CCOCCOCCOCCOCCOCCNC(=O)CC[C@@H](NC(=O)[C@@H](CNC(=O)C[N+](C)(C)Cc1ccc([Si](F)(C(C)(C)C)C(C)(C)C)cc1)NC(=O)CN1CCN(CC(=O)O)CCN(CC(=O)O)CCN(CC(=O)O)CC1)C(=O)O)C(=O)O [[^nat/177Lu]Lu-DOTA-rhCCK-91, metal not drawn]", "tissue uptake at 24 h": "0.06 %ID/g"}

# evaluate next
Lab note: measured tissue uptake at 24 h of CCCC[C@@H](C(=O)N[C@@H](CC(=O)O)C(=O)N[C@@H](Cc1cccc2ccccc12)C(N)=O)N(C)C(=O)[C@H](Cc1c[nH]c2ccccc12)NC(=O)CCOCCOCCOCCOCCNC(=O)CC[C@@H](NC(=O)CCOCCOCCOCCOCCOCCOCCOCCOCCNC(=O)CC[C@@H](NC(=O)[C@@H](CNC(=O)c1ccc([Si](F)(C(C)(C)C)C(C)(C)C)cc1)NC(=O)CN1CCN(CC(=O)O)CCN(CC(=O)O)CCN(CC(=O)O)CC1)C(=O)O)C(=O)O [[^nat/177Lu]Lu-DOTA-rhCCK-70, metal not drawn] was 0.06 %ID/g

* * *

Assignment: determine reported tissue uptake at 24 h for the given compounds.
assay: Biodistribution at 24 h p.i. in AR42J tumor-bearing CB17-SCID mice; format: in vivo; settings: mouse, spleen, 100 pmol, n=4, mean ± SD, read-out: Biodistribution, Spleen

{"compound": "CCCC[C@@H](C(=O)N[C@@H](CC(=O)O)C(=O)N[C@@H](Cc1cccc2ccccc12)C(N)=O)N(C)C(=O)[C@H](Cc1c[nH]c2ccccc12)NC(=O)CCOCCOCCOCCOCCNC(=O)CC[C@@H](NC(=O)CCOCCOCCOCCOCCOCCNC(=O)CC[C@@H](NC(=O)[C@@H](CNC(=O)C[N+](C)(C)Cc1ccc([Si](F)(C(C)(C)C)C(C)(C)C)cc1)NC(=O)CN1CCN(CC(=O)O)CCN(CC(=O)O)CCN(CC(=O)O)CC1)C(=O)O)C(=O)O [[^nat/177Lu]Lu-DOTA-rhCCK-91, metal not drawn]", "measured quantity": "tissue uptake at 24 h", "reported": "1 %ID/g"}

# evaluate next
Lab note: measured tissue uptake at 24 h of CCCC[C@@H](C(=O)N[C@@H](CC(=O)O)C(=O)N[C@@H](Cc1cccc2ccccc12)C(N)=O)N(C)C(=O)[C@H](Cc1c[nH]c2ccccc12)NC(=O)CCOCCOCCOCCOCCNC(=O)CC[C@@H](NC(=O)CCOCCOCCOCCOCCOCCOCCOCCOCCNC(=O)CC[C@@H](NC(=O)[C@@H](CNC(=O)c1ccc([Si](F)(C(C)(C)C)C(C)(C)C)cc1)NC(=O)CN1CCN(CC(=O)O)CCN(CC(=O)O)CCN(CC(=O)O)CC1)C(=O)O)C(=O)O [[^nat/177Lu]Lu-DOTA-rhCCK-70, metal not drawn] was 1.9 %ID/g

* * *

test: Biodistribution at 24 h p.i. in AR42J tumor-bearing CB17-SCID mice; format: in vivo; conditions: mouse, liver, 100 pmol, n=4, mean ± SD, read-out: Biodistribution, Liver
Assignment: determine reported tissue uptake at 24 h for the given compounds.
Answers are plain numbers, in %ID/g.

{"compound": "CCCC[C@@H](C(=O)N[C@@H](CC(=O)O)C(=O)N[C@@H](Cc1cccc2ccccc12)C(N)=O)N(C)C(=O)[C@H](Cc1c[nH]c2ccccc12)NC(=O)CCOCCOCCOCCOCCNC(=O)CC[C@@H](NC(=O)CCOCCOCCOCCOCCOCCNC(=O)CC[C@@H](NC(=O)[C@@H](CNC(=O)C[N+](C)(C)Cc1ccc([Si](F)(C(C)(C)C)C(C)(C)C)cc1)NC(=O)CN1CCN(CC(=O)O)CCN(CC(=O)O)CCN(CC(=O)O)CC1)C(=O)O)C(=O)O [[^nat/177Lu]Lu-DOTA-rhCCK-91, metal not drawn]", "tissue uptake at 24 h / %ID/g": 2}

Lab note: measured tissue uptake at 24 h of CCCC[C@@H](C(=O)N[C@@H](CC(=O)O)C(=O)N[C@@H](Cc1cccc2ccccc12)C(N)=O)N(C)C(=O)[C@H](Cc1c[nH]c2ccccc12)NC(=O)CCOCCOCCOCCOCCNC(=O)CC[C@@H](NC(=O)CCOCCOCCOCCOCCOCCOCCOCCOCCNC(=O)CC[C@@H](NC(=O)[C@@H](CNC(=O)c1ccc([Si](F)(C(C)(C)C)C(C)(C)C)cc1)NC(=O)CN1CCN(CC(=O)O)CCN(CC(=O)O)CCN(CC(=O)O)CC1)C(=O)O)C(=O)O [[^nat/177Lu]Lu-DOTA-rhCCK-70, metal not drawn] was 3.5

* * *

test: Biodistribution at 24 h p.i. in AR42J tumor-bearing CB17-SCID mice; format: in vivo; conditions: both sexes, CB17-SCID, mouse, tumor/kidney, 100 pmol, total radioactivity, read-out: tumor-to-kidney ratio
measured quantity: tissue to tissue ratio at 24 h
Give bare numbers.

Lab note: measured tissue to tissue ratio at 24 h of CCCC[C@@H](C(=O)N[C@@H](CC(=O)O)C(=O)N[C@@H](Cc1cccc2ccccc12)C(N)=O)N(C)C(=O)[C@H](Cc1c[nH]c2ccccc12)NC(=O)CCOCCOCCOCCOCCNC(=O)CC[C@@H](NC(=O)CCOCCOCCOCCOCCOCCOCCOCCOCCNC(=O)CC[C@@H](NC(=O)[C@@H](CNC(=O)c1ccc([Si](F)(C(C)(C)C)C(C)(C)C)cc1)NC(=O)CN1CCN(CC(=O)O)CCN(CC(=O)O)CCN(CC(=O)O)CC1)C(=O)O)C(=O)O [[^nat/177Lu]Lu-DOTA-rhCCK-70, metal not drawn] was 1.4

* * *

test: Lipophilicity, n-octanol/PBS distribution coefficient logD7.4; format: physicochemical; conditions: 177Lu-labeled peptide; n-octanol/PBS (1/1), n ≥ 5
measured quantity: logD
Give bare numbers.

Field: example entries. Status: answers known.
{"compound": "CCCC[C@@H](C(=O)N[C@@H](CC(=O)O)C(=O)N[C@@H](Cc1cccc2ccccc12)C(N)=O)N(C)C(=O)[C@H](Cc1c[nH]c2ccccc12)NC(=O)CCOCCOCCOCCOCCNC(=O)CC[C@@H](NC(=O)CCOCCOCCOCCOCCOCCNC(=O)CC[C@@H](NC(=O)[C@@H](CNC(=O)c1ccc([Si](F)(C(C)(C)C)C(C)(C)C)cc1)NC(=O)CN1CCN(CC(=O)O)CCN(CC(=O)O)CCN(CC(=O)O)CC1)C(=O)O)C(=O)O [[^nat/177Lu]Lu-DOTA-rhCCK-68, DOTA-D-Dap(p-SiFA)-D-γ-Glu-(PEG)4-B, metal not drawn]", "measured quantity": "logD", "reported": -1.65}
{"compound": "CCCC[C@@H](C(=O)N[C@@H](CC(=O)O)C(=O)N[C@@H](Cc1cccc2ccccc12)C(N)=O)N(C)C(=O)[C@H](Cc1c[nH]c2ccccc12)NC(=O)CCOCCOCCOCCOCCNC(=O)CC[C@@H](NC(=O)CCOCCOCCOCCOCCOCCOCCOCCOCCNC(=O)CC[C@@H](NC(=O)[C@@H](CNC(=O)C[N+](C)(C)Cc1ccc([Si](F)(C(C)(C)C)C(C)(C)C)cc1)NC(=O)CN1CCN(CC(=O)O)CCN(CC(=O)O)CCN(CC(=O)O)CC1)C(=O)O)C(=O)O [[^nat/177Lu]Lu-DOTA-rhCCK-71, DOTA-D-Dap(SiFAlin)-D-γ-Glu-(PEG)7-B, metal not drawn]", "measured quantity": "logD", "reported": -1.63}
{"compound": "CCCC[C@@H](C(=O)N[C@@H](CC(=O)O)C(=O)N[C@@H](Cc1cccc2ccccc12)C(N)=O)N(C)C(=O)[C@H](Cc1c[nH]c2ccccc12)NC(=O)CCOCCOCCOCCOCCNC(=O)CC[C@@H](NC(=O)CCOCCOCCOCCOCCOCCNC(=O)CC[C@@H](NC(=O)[C@@H](CNC(=O)C[N+](C)(C)Cc1ccc([Si](F)(C(C)(C)C)C(C)(C)C)cc1)NC(=O)CN1CCN(CC(=O)O)CCN(CC(=O)O)CCN(CC(=O)O)CC1)C(=O)O)C(=O)O [[^nat/177Lu]Lu-DOTA-rhCCK-91, metal not drawn]", "measured quantity": "logD", "reported": -1.66}

Lab note: measured logD of CCCC[C@@H](C(=O)N[C@@H](CC(=O)O)C(=O)N[C@@H](Cc1cccc2ccccc12)C(N)=O)N(C)C(=O)[C@H](Cc1c[nH]c2ccccc12)NC(=O)CCOCCOCCOCCOCCNC(=O)CC[C@@H](NC(=O)CCOCCOCCOCCOCCOCCOCCOCCOCCNC(=O)CC[C@@H](NC(=O)[C@@H](CNC(=O)c1ccc([Si](F)(C(C)(C)C)C(C)(C)C)cc1)NC(=O)CN1CCN(CC(=O)O)CCN(CC(=O)O)CCN(CC(=O)O)CC1)C(=O)O)C(=O)O [[^nat/177Lu]Lu-DOTA-rhCCK-70, metal not drawn] was -1.67
